// drug sensitivity score lookup, one value per entry
Test system: YT (IL-2 2.5 ng/mL)
Assay: drug sensitivity score (DSS) (DSS units); higher = more sensitive; extreme values may be limits of the assay
Settings: 72 h
result_type: drug sensitivity score

>>> measured("C[C@@H](Oc1cc(-n2cnc3ccc(CN4CCN(C)CC4)cc32)sc1C(N)=O)c1ccccc1C(F)(F)F (max concentration tested 10000 nM)")
27.5
>>> measured("COc1c(C)cnc(Cn2cnc3c(Cl)nc(N)nc32)c1C [BIIB021] (max concentration tested 10000 nM)")
22.8
>>> measured("C=C1C[C@@H]2[C@H](CC[C@]3(C)C(=O)CC[C@@H]23)[C@@]2(C)C=CC(=O)C=C12 [Exemestane] (max concentration tested 10000 nM)")
0
>>> measured("CS(=O)(=O)OCCCCOS(C)(=O)=O [Busulfan] (max concentration tested 100000 nM)")
2.18

---

Test system: YT (IL-2 2.5 ng/mL)
Test: percent inhibition of viability; higher = more inhibition
Settings: 72 h; 100 nM
result_type: percent inhibition of viability (%)

>>> measured("CC[C@@H]1C(=O)N(C)c2cnc(Nc3ccc(C(=O)NC4CCN(C)CC4)cc3OC)nc2N1C1CCCC1 [BI 2536] (max concentration tested 1000 nM)")
77.8
>>> measured("Cc1sc2c(c1C)C(c1ccc(Cl)cc1)=N[C@@H](CC(=O)OC(C)(C)C)c1nnc(C)n1-2 [(+)JQ1] (max concentration tested 10000 nM)")
8.16
>>> measured("CCc1cc2c(cc1N1CCC(N3CCOCC3)CC1)C(C)(C)c1[nH]c3cc(C#N)ccc3c1C2=O [Alectinib] (max concentration tested 1000 nM)")
0.11
>>> measured("N#Cc1ccc(COC[C@H]2O[C@@H](n3c(NCc4ccc(Cl)c(Cl)c4)nc4c(N)ncnc43)[C@H](O)[C@@H]2O)cc1 (max concentration tested 10000 nM)")
-2.55
>>> measured("COCC(=O)NC/C=C/c1ccc2ncnc(Nc3ccc(Oc4ccc(C)nc4)c(C)c3)c2c1 (max concentration tested 10000 nM)")
0.57
>>> measured("Cc1cnc(Nc2ccc(OCCN3CCCC3)cc2)nc1Nc1cccc(S(=O)(=O)NC(C)(C)C)c1 (max concentration tested 10000 nM)")
6.19

---

System: KHYG-1 (IL-2 2.5 ng/mL)
Test: percent inhibition of viability; higher = more inhibition
Details: 72 h; 2.5 nM
// percent inhibition of viability lookup, one value per entry
result_type: percent inhibition of viability (%)

>>> measured("Cn1cc(-c2cnn3c(N)c(Br)c([C@@H]4CCCNC4)nc23)cn1 [MK-8776] (max concentration tested 2500 nM)")
-4.38
>>> measured("CC(C)(O)CC(=O)NCCn1ccc2ncnc(Nc3ccc(Oc4cccc(C(F)(F)F)c4)c(Cl)c3)c21 [TAK-285] (max concentration tested 2500 nM)")
-1.01
>>> measured("CCN1CCN(Cc2ccc(Nc3ncc(F)c(-c4cc(F)c5nc(C)n(C(C)C)c5c4)n3)nc2)CC1 [Abemaciclib] (max concentration tested 2500 nM)")
-1.51
>>> measured("CC(=O)Nc1cccc(-n2c(=O)n(C3CC3)c(=O)c3c(Nc4ccc(I)cc4F)n(C)c(=O)c(C)c32)c1 [Trametinib] (max concentration tested 250 nM)")
17.2

---

// percent inhibition of viability lookup, one value per entry
Test system: KAI3 (IL-2 2.5 ng/mL)
Assay: percent inhibition of viability; higher = more inhibition
Settings: 72 h; 100 nM
result_type: percent inhibition of viability

>>> measured("Cc1ccc(NC(=O)c2ccc(CN3CCN(C)CC3)cc2)cc1Nc1nc(-c2cccnc2)cs1 [Masitinib] (max concentration tested 10000 nM)")
"-11.5%"
>>> measured("CNC(=O)CN1CCC(Oc2cc3c(Nc4cccc(Cl)c4F)ncnc3cc2OC)CC1 [Sapitinib] (max concentration tested 1000 nM)")
"-5.73%"
>>> measured("C=CCNC1=C2C[C@@H](C)C[C@H](OC)[C@H](O)[C@@H](C)/C=C(\\C)[C@H](OC(N)=O)[C@@H](OC)/C=C\\C=C(/C)C(=O)NC(=CC1=O)C2=O [Tanespimycin] (max concentration tested 10000 nM)")
"60.9%"
>>> measured("O=C(Nc1cccnc1)N1CCC(Cc2cccc(Oc3ccc(C(F)(F)F)cn3)c2)CC1 [PF-3845] (max concentration tested 10000 nM)")
"4.46%"
>>> measured("COc1cccc2cc(-c3nc([C@H]4CC[C@H](C(=O)O)CC4)n4ncnc(N)c34)[nH]c12 [OSI-027] (max concentration tested 10000 nM)")
"9.85%"
>>> measured("CCc1cc2c(cc1N1CCC(N3CCOCC3)CC1)C(C)(C)c1[nH]c3cc(C#N)ccc3c1C2=O [Alectinib] (max concentration tested 1000 nM)")
"1.36%"
